targetDesc: human MC3R (Homo sapiens)
Construct: expressed in transfected cells; host or cells: HEK293/CRE-luc/MC3R
Sequence (P41968 whole entry): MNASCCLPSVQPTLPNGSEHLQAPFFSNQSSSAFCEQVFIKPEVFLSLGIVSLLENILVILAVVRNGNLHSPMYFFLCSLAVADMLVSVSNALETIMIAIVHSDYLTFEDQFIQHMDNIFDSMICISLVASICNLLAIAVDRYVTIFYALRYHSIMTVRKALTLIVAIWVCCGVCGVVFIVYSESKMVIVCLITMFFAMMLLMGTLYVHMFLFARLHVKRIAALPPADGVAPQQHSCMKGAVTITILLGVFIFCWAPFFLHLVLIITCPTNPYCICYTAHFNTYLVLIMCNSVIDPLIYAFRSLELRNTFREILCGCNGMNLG
assayExplanation: cAMP accumulation assay (HTRF), antagonist activity at MC3R
Assay type: cell-based
experimentalConditions: dose-response fit, MC3R
Positions of bridges follow the written chain, without caps; N, C: chain ends. Non-standard residues stand in square brackets, D forms with d. Residues, ends and D or L forms follow the SMILES beside them. d2Nal = N[C@H](Cc1ccc2ccccc2c1)C(=O)O; Hyp = O=C(O)[C@@H]1C[C@@H](O)CN1; Nle = CCCC[C@H](N)C(=O)O
Attribute: Top (%)
Hi! Could you send only the number? It should be in %, unit omitted.

- compound: "CCCC[C@H](NC(C)=O)C(=O)N[C@H]1CC(=O)NCCCC[C@@H](C(=O)N[C@@H](C(=O)N2CCC[C@@H]2C(N)=O)C(C)C)NC(=O)[C@H](Cc2c[nH]c3ccccc23)NC(=O)[C@H](CCCNC(=N)N)NC(=O)[C@@H](Cc2ccc3ccccc3c2)NC(=O)[C@H](Cc2c[nH]cn2)NC(=O)[C@@H]2CCCN2C1=O [Peptide D1] (Ac-[Nle]DPH[d2Nal]RWK[dV][dP]-NH2; lactam 2-8)"
  uom: "%"
  Top (%): 4952.72

Can you look up the measured Top (%) of CCCC[C@H](NC(C)=O)C(=O)N[C@H]1CC(=O)NCCCC[C@@H](C(=O)N[C@@H](C(=O)N2CCC[C@@H]2C(N)=O)C(C)C)NC(=O)[C@@H]2CCCN2C(=O)[C@H](Cc2c[nH]c3ccccc23)NC(=O)[C@H](CCCNC(=N)N)NC(=O)[C@@H](Cc2ccc3ccccc3c2)NC(=O)[C@@H]2C[C@@H](O)CN2C1=O [Peptide D4] (Ac-[Nle]D[Hyp][d2Nal]RWPK[dV][dP]-NH2; lactam 2-8) for me?
2741.58
